All values here come from patent US9512089B2.

# TARGET DESC: P2X2/3 receptor (Homo sapiens, UniProt P56373+Q9UBL9)
# Sequence (P56373 whole entry): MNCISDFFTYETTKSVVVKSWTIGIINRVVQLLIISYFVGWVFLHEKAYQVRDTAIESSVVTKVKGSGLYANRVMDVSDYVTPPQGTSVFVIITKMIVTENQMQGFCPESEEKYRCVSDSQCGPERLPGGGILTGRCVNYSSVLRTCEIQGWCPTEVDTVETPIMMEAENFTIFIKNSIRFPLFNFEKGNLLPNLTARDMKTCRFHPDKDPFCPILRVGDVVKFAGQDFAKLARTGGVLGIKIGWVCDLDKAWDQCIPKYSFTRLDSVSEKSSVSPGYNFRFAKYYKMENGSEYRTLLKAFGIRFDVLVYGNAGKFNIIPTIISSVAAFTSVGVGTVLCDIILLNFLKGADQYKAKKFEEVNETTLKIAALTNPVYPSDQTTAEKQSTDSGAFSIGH
# Sequence (Q9UBL9 whole entry): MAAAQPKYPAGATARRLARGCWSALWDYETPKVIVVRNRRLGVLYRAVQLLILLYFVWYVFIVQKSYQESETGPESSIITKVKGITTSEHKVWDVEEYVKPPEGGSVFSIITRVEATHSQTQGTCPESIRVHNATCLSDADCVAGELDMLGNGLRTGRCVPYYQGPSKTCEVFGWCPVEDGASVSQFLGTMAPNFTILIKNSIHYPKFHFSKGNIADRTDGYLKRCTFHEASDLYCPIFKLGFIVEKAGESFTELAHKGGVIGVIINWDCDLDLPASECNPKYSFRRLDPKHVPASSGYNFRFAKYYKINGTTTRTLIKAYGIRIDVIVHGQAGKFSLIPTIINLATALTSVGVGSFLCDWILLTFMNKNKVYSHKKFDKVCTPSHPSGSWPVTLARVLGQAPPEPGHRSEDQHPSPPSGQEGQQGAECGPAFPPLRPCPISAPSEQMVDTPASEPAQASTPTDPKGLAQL
# ASSAY INFO: P2X2/3 FLIPR (Fluorometric Imaging Plate Reader) assay
# RECORDED CONDITIONS: CHO-K1 cells transfected with human P2X2/3; agonist α,β-meATP 5 μM; Fluo-3 fluorescence
ENDPOINT: IC50

Query string: Given CCc1nnnn1-c1cc(C(=O)NC(C)c2cnccn2)cc(-c2ccc(C)cc2)c1 (stereo not shown) , report its IC50 on P2X2/3 receptor (Homo sapiens, UniProt P56373+Q9UBL9).
Result string: ~7.94 nM
